assay: Pharmacokinetics of intraperitoneal or intravenous injection in CD1 mice; format: in vivo; settings: IV 1.0 mg/kg, CD1 mice plasma, 24 h
QUANTITY_KIND: Conc. (ng/mL) Mouse 3

{"MOLECULE": "Cc1ncsc1-c1ccc(CNC(=O)[C@@H]2C[C@@H](O)CN2C(=O)[C@@H](NC(=O)COCCOc2ccc(Nc3ncc(C(F)(F)F)c(NCc4cccc(N(C)S(C)(=O)=O)c4)n3)cc2)C(C)(C)C)cc1 [Compound 100]", "Conc. (ng/mL) Mouse 3": "BLOQ"}
{"MOLECULE": "Cc1ncsc1-c1ccc(CNC(=O)[C@@H]2C[C@@H](O)CN2C(=O)[C@@H](NC(=O)CCOCCOc2ccc(Nc3ncc(C(F)(F)F)c(NCc4cccc(N(C)S(C)(=O)=O)c4)n3)cc2)C(C)(C)C)cc1 [Compound 102]", "Conc. (ng/mL) Mouse 3": "BLOQ"}
{"MOLECULE": "Cc1ncsc1-c1ccc(CNC(=O)[C@@H]2C[C@@H](O)CN2C(=O)[C@@H](NC(=O)COCCCOc2ccc(Nc3ncc(C(F)(F)F)c(NCc4cccc(N(C)S(C)(=O)=O)c4)n3)cc2)C(C)(C)C)cc1 [Compound 101]", "Conc. (ng/mL) Mouse 3": "BLOQ"}
{"MOLECULE": "Cc1ncsc1-c1ccc(CNC(=O)[C@@H]2C[C@@H](O)CN2C(=O)[C@@H](NC(=O)CCOCCCOc2ccc(Nc3ncc(C(F)(F)F)c(NCc4cccc(N(C)S(C)(=O)=O)c4)n3)cc2)C(C)(C)C)cc1 [Compound 103]", "Conc. (ng/mL) Mouse 3": "BLOQ"}

Then there is this molecule:
Bench note: what Conc. (ng/mL) Mouse 3 did CN(c1cccc(CNc2nc(Nc3ccc(OCCCOCCC(=O)NCCOc4cccc5c4C(=O)N(C4CCC(=O)NC4=O)C5=O)cc3)ncc2C(F)(F)F)c1)S(C)(=O)=O (centres unmarked) [Compound 107] show? BLOQ
